assay: lung carcinoma cell viability loss – CellTiter-Glo luminescence, dry powder, set 18, cytotoxicity control, dose response (AID 1117290); conditions: A549 viability, CellTiter-Glo ATP luminescence, 72 h; series mostly up to 26 µM
Entries with a potency or affinity are not part of this list. Activity calls are given as the source filed them.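 How the source made its calls: active means every replicate test called active, each showing a drop in signal with a fitted potency within twice the top tested dose; inconclusive means tests disagree, or fits are weak, flat midrange or poor; inactive means every test flat, rising or fitted past the limit.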
outcome measure: outcome

CC(=O)N1CCN(C(=O)C2(NC(=O)Nc3ccccc3)CCCC2)CC1 :: inactive
COc1ccc(C(=O)Nc2cc(C(F)(F)F)ccc2N2CCCCC2)cc1S(=O)(=O)O :: inactive
CC(=O)N1CCN(C(=O)C2(NC(=O)Nc3ccc(C(F)(F)F)cc3)CCCC2)CC1 :: inactive
CC(=O)N1CCN(C(=O)C2(NC(=O)Nc3ccc(F)cc3)CCCCC2)CC1 :: inactive
COc1ccc(C(=O)O)cc1S(=O)(=O)Nc1cccc(N2CCCCC2)c1C(F)(F)F :: inactive
O=S(=O)(Nc1cc(C(F)(F)F)ccc1N1CCCCC1)c1ccc(Br)cc1 :: inactive
COc1ccc(C(=O)O)cc1S(=O)(=O)Nc1cc(C(F)(F)F)ccc1N1CCCCC1 :: inactive
CC(=O)N1CCN(C(=O)C2(NC(=O)Nc3ccc(C(C)C)cc3)CCCCC2)CC1 :: inactive

What value of outcome has been recorded for this entry: O=S(=O)(Nc1cc(C(F)(F)F)ccc1N1CCCCC1)c1ccc(F)cc1
inactive

What value of outcome has been recorded for this entry: COc1ccc(C(=O)Nc2cccc(C(F)(F)F)c2)cc1S(=O)(=O)O
inactive
